The values you see were collected from patent US10004732B2.

Target: PI 3-kinase delta (Homo sapiens, UniProt O00329)
Sequence (O00329 whole entry): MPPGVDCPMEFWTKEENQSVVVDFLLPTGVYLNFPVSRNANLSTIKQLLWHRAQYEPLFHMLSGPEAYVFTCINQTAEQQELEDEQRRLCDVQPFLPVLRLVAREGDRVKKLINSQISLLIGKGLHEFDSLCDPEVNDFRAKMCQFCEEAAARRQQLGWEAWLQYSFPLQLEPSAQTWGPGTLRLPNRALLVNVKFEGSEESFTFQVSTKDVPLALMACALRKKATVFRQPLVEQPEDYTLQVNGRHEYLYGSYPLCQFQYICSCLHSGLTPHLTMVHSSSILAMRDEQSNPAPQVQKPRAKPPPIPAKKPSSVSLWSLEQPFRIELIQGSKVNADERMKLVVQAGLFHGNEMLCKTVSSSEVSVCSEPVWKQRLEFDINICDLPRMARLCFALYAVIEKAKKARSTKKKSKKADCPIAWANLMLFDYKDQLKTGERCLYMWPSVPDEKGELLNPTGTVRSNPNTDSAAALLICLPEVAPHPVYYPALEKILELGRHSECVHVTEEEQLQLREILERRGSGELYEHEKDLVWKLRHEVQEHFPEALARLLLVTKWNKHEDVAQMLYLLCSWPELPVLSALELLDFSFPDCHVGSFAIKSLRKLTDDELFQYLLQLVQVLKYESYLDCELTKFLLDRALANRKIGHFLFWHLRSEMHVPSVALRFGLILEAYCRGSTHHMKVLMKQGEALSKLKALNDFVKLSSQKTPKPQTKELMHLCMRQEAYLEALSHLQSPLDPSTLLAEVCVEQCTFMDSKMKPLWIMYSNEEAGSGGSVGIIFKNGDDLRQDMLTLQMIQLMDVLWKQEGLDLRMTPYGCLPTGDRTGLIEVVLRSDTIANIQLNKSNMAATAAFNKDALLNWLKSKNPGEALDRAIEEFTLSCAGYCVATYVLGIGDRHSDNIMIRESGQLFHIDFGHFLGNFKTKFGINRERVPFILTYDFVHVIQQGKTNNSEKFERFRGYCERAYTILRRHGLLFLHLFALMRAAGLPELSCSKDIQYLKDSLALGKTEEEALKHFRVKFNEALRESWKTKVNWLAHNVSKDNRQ
Sequence (P27986 461-568 partner): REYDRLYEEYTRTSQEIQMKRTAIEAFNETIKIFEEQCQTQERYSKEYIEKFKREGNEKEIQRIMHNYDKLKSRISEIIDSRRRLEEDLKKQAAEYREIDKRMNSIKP
Assay: TR-FRET Adapta assay, assay F
Settings: read-out: Assay F PI3Kδ IC50
# pIC50 listing for each entry below
The quantity pIC50 is defined as the negative base-10 logarithm of the molar concentration.

Sample records with pIC50:
Cc1ccc(S(=O)(=O)NCC(C)(C)O)cc1-c1cnc(N)c(-c2nc(C3CC3)no2)n1 [Example 95]; 6.14
Cc1ccc(S(=O)(=O)N[C@H]2CC[C@H](O)CC2)cc1-c1cnc(N)c(-c2cccnc2)n1 [Example 22]; 6.38
Cc1ccc(S(=O)(=O)NCC(C)(C)O)cc1-c1cnc(N)c(-c2cn(C)nn2)n1 [Example 81]; 5.60

Task item: So what's the measured pIC50 for this one? CCc1noc(-c2nc(-c3cc(S(=O)(=O)NC4CNC4)ccc3C)cnc2N)n1 [Example 137]
Reply: 6.48

Task item: Item Cc1ccc(S(=O)(=O)N2CCC(F)C2)cc1-c1cnc(N)c(-n2cncn2)n1 (centres unmarked) [Example 127.2] has what recorded pIC50?
Reply: 6.07

Task item: Request the reported pIC50 associated with Cc1ccc(S(=O)(=O)NC2CCC(F)(F)CC2)cc1-c1cnc(N)c(-c2cnn(C)c2)n1 [Example 54]
Reply: 6.96

Task item: Fill in: pIC50 of Cc1cc(-c2nc(-c3cc(S(=O)(=O)NC[C@@](C)(O)C(F)(F)F)ccc3C)cnc2N)ccn1 [Example 129.20] is ___
Reply: 6.54

Task item: Fill blank: measured pIC50 of the compound Cc1ccc(S(=O)(=O)NCC(C)(C)O)cc1-c1cnc(N)c(-n2cc(C)c(C)n2)n1 [Example 47] is ____.
Reply: 6.28
